Test system: Clostridium difficile
Assay overview: growth AUC relative to DMSO control (median of replicates) (fraction); higher = more growth (less inhibition), active = hit call of the paper
Condition description: 20 µM; 24 h
Parameter: growth AUC

1) O=C1C(Cl)=C(Cl)C(=O)C(Cl)=C1Cl; 1.03
2) CN(C)S(=O)(=O)N(SC(F)(Cl)Cl)c1ccccc1; 1.01
3) COP(=S)(OC)Oc1ccc(SC)c(C)c1; 1.03
4) CCC(C)(NC(=O)c1cc(Cl)c(C)c(Cl)c1)C(=O)CCl (stereo not given); 0.496
5) Cc1cc(Cl)ccc1O[C@H](C)C(=O)O; 0.972
6) CC(C)[C@H](C(=O)O[C@H](C#N)c1cccc(Oc2ccccc2)c1)c1ccc(Cl)cc1; 1
7) O=C(Nc1ccc(F)cc1F)c1cccnc1Oc1cccc(C(F)(F)F)c1; 0.977
8) C#CCN1C(=O)COc2cc(F)c(N3C(=O)C4=C(CCCC4)C3=O)cc21; 0.929
9) CNC(=O)/C=C(\C)OP(=O)(OC)OC; 1.04
10) CCCSP(=S)(OCC)Oc1ccc(Cl)cc1Cl (stereo not given); 1.05
11) CCOP(=S)(OCC)Oc1cnc2ccccc2n1; 0.988
12) C=CC(N)=O; 1.01
13) O=[N+]([O-])c1ccc2ccc3cccc4ccc1c2c34; 0.913
14) CNC(=S)S; 0.999
15) CCOC(=O)COc1cc(-c2nn(C)c(OC(F)F)c2Cl)c(F)cc1Cl; 1.02
16) COP(=S)(OC)Oc1ccc(S(C)=O)c(C)c1 (stereo not given); 1.01
17) CNC(=O)ON=C(C)C(C)SC (stereo not given); 0.927
18) CCOP(=O)(OCC)O/C(=C\Cl)c1ccc(Cl)cc1Cl; 1
19) BrCCBr; 0.997
20) CC(=O)O.NC(N)=NCCCCCCCCNCCCCCCCCN=C(N)N; 0.984
21) CC(C)(C)c1ccc(CCOc2ncnc3ccccc23)cc1; 0.98
22) N#Cc1cc(Br)c(O)c(Br)c1; 0.98
23) Oc1ccc(Cl)cc1Cl; 0.946
24) Cc1ccc(N=CN(C)C=Nc2ccc(C)cc2C)c(C)c1; 1.04
25) COC(=O)COc1ccc(Cl)cc1Cl; 1

* * *

System: Escherichia coli ED1a
Assay overview: growth AUC relative to DMSO control (median of replicates) (fraction); higher = more growth (less inhibition), active = hit call of the paper
Condition description: 20 µM; 24 h
Parameter: growth AUC

1. COc1cc(OC)nc(Oc2cccc(Oc3nc(OC)cc(OC)n3)c2C(=O)[O-])n1.[Na+]; 0.989
2. O=c1oc2ccccc2c(O)c1C(CC(O)c1ccc(-c2ccc(Br)cc2)cc1)c1ccccc1 (stereo unspecified); 1
3. CC(C)(COCc1cccc(Oc2ccccc2)c1)c1ccc(OC(F)(F)Br)cc1; 0.999
4. CCOP(=S)(OCC)Oc1ccc(=O)n(-c2ccccc2)n1; 0.965
5. c1ccc2c(c1)ccc1c3ccccc3sc21; 0.988
6. CCC(C)(NC(=O)c1cc(Cl)c(C)c(Cl)c1)C(=O)CCl (stereo unspecified); 1.01
7. CCOP(=O)(OCC)ON1C(=O)c2cccc3cccc(c23)C1=O; 0.994
8. C#CCC1=C(C)C(OC(=O)C2C(C=C(C)C)C2(C)C)CC1=O (stereo unspecified); 1.02
9. CCCC(Cn1cncn1)c1ccc(Cl)cc1Cl (stereo unspecified); 0.997
10. Cc1cc(Cl)ccc1O[C@H](C)C(=O)O; 1
11. Nc1ncn[nH]1; 1.02
12. CCSC(=O)N1CCCCCC1; 0.991
13. COP(=O)(OC)Oc1ccc(S(C)=O)c(C)c1 (stereo unspecified); 0.962
14. O=C(O)CNCP(=O)(O)O; 1
15. CCCN(CCCl)c1c([N+](=O)[O-])cc(C(F)(F)F)cc1[N+](=O)[O-]; 0.983
16. CN(C)C(=S)[S-].CN(C)C(=S)[S-].[Zn+2]; 0.953
17. C1=Cc2cccc3cccc1c23; 1.02
18. CSc1nc(NC(C)C)nc(NC(C)C)n1; 1.01
19. CC(Cl)(Cl)C(=O)O; 1.02
20. C[C@@H]1C[C@@H]([C@H](O)CC2CC(=O)NC(=O)C2)C(=O)[C@@H](C)C1; 1.01
21. CCSCc1ccccc1OC(=O)NC; 0.971
22. Cc1cccc(C)c1N(Cn1cccn1)C(=O)CCl; 0.976
23. Oc1ccc(-c2ccccc2)cc1; 0.991
24. CCN(CC)C(=O)C(C)Oc1cccc2ccccc12 (stereo unspecified); 0.979
25. Cc1ccccc1CO[C@@H]1C[C@@]2(C(C)C)CC[C@]1(C)O2 (mixture of isomers); 1.02
26. CCNc1nc(Cl)nc(NC(C)(C)C#N)n1; 1.02
27. NCCO.O=C(O)c1nc(Cl)ccc1Cl; 1.01
28. O=C(O)c1cc(Oc2ccc(C(F)(F)F)cc2Cl)ccc1[N+](=O)[O-]; 0.992
29. CC1(C)C(/C=C(\Cl)C(F)(F)F)C1C(=O)OC(C#N)c1cccc(Oc2ccccc2)c1 (stereo unspecified); 1.05
30. Clc1ccc(C2(Cn3cncn3)OCCO2)c(Cl)c1; 0.98
31. O=C(O)C(F)(F)C(F)(F)C(F)(F)C(F)(F)C(F)(F)C(F)(F)C(F)(F)C(F)(F)C(F)(F)F; 1.01
32. Cc1occc1C(=O)Nc1ccccc1; 0.966
33. CC1(C)C(C=C(Cl)Cl)C1C(=O)OCc1cccc(Oc2ccccc2)c1 (mixture of isomers); 1.02
34. COP(=S)(OC)Oc1c(Cl)cc(C)cc1Cl; 0.983
35. O=P(Oc1ccccc1)(Oc1ccccc1)Oc1ccccc1; 1
36. CCOC(=O)OC1=C(c2cc(C)ccc2C)C(=O)NC12CCC(OC)CC2 (stereo unspecified); 1.01
37. CNC(=O)O/N=C(\C)C(C)S(C)=O (stereo unspecified); 1.02
38. CCOC(=O)CCN(SN(C)C(=O)Oc1cccc2c1OC(C)(C)C2)C(C)C; 0.994
39. CNC(=O)ON=C(C)C(C)SC (stereo unspecified); 1.03
40. OC(c1ccc(F)cc1)(c1cncnc1)c1ccccc1Cl (stereo unspecified); 0.996
41. CNC(=O)ON=C(CS(C)=O)C(C)(C)C (stereo unspecified); 1.02
42. CCSC(C)CC1CC(=O)C(/C(CC)=N/OC/C=C/Cl)=C(O)C1 (mixture of isomers); 1.03
43. O=C1C2CC=CCC2C(=O)N1SC(Cl)(Cl)Cl (stereo unspecified); 1.02
44. C#CCN1C(=O)COc2cc(F)c(N3C(=O)C4=C(CCCC4)C3=O)cc21; 0.98
45. CCCOC(=O)c1ccccc1C(=O)OCCC; 1.02
46. CCOC(=O)CC(SP(=O)(OC)OC)C(=O)OCC (stereo unspecified); 0.97
